Measurement target: UniProt:P11802
Sequence (P11802 whole entry): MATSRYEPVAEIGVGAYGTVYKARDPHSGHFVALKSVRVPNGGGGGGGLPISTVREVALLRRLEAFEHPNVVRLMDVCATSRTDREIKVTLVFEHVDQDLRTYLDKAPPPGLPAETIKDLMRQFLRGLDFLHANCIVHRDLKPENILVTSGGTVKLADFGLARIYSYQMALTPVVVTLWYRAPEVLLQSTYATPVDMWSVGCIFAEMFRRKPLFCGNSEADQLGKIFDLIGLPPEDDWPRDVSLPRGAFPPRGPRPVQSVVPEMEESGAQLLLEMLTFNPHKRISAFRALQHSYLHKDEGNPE
Assay type: cell-based
Measurement parameters: experiment wp137
Description: Although development of targeted protein degraders requires a POI binder, among already-liganded proteins such as kinases, it was hypothesized that different targets would have a different propensity for current approaches to degrader-mediated destruction, which was termed ‘degradability’. […]
Metric: logFC CDK4 (P11802)
Give bare numbers.

Examples with answers:
CC(=O)c1c(C)c2cnc(Nc3ccc(N4CCN(CCCCNC(=O)COc5cccc6c5C(=O)N(C5CCC(=O)NC5=O)C6=O)CC4)cn3)nc2n(C2CCCC2)c1=O (stereo not shown) [BSJ.03.204] :: −2.118
CC(C)S(=O)(=O)c1ccccc1Nc1nc(Nc2ccc(N3CCN(CCOCCOCCC(=O)NCCNc4cccc5c4CN(C4CCC(=O)NC4=O)C5=O)CC3)cc2)ncc1Cl (stereo not shown) [TL13.97] :: −0.9676

Could you tell me logFC CDK4 (P11802) for each of these compounds? They are listed below.
1. CC(C)S(=O)(=O)c1ccccc1Nc1nc(Nc2ccc(N3CCN(CCOCCOCCNC(=O)CNc4cccc5c4C(=O)N(C4CCC(=O)NC4=O)C5=O)CC3)cc2)ncc1Cl (stereo not shown) [TL12.186]
2. CC(C)(C)c1nc(-c2cccc(NS(=O)(=O)c3c(F)cccc3F)c2F)c(-c2ccnc(NCCOCCNC(=O)CCOCCOCCNc3cccc4c3C(=O)N(C3CCC(=O)NC3=O)C4=O)n2)s1 (stereo not shown) [DD.03.106]

−1.173
−0.8885
